System: RPMI 8226 cells
PROTOCOL DESCRIPTION: In vitro BTZ cytotoxicity study (SRB assay)
Format: cell-based
ASSAY SETUP: Homo sapiens, 72 hours, read-out: IC50 of % cell survival
MEASURED ENDPOINT: pIC50
Formally, pIC50 is defined as -log10 of the concentration c, with c in mol/L.

// query Which pIC50 is listed for CC(C)C[C@H](NC(=O)[C@H](Cc1ccccc1)NC(=O)c1cnccn1)B(O)O [BTZ, bortezomib, reference compound] ?
// result 8.40

Cited source for all entries: patent US20220354834A1
